# assay text: PK study in mice after intravenous administration
# Assay type: in vivo, CD-1 mice
# cond: male, mouse; plasma, CD-1 mice, 1 mg/kg IV
experimental endpoint: AUC(0-t) (ng·h/mL)
Respond numerically; units are ng·h/mL and should not be typed.

Please report the recorded AUC(0-t) for C#CC[C@H](NC(=O)c1ccc(NC(=O)c2ccc(C#N)cc2)cc1)C(=O)Nc1ccc(NC(=O)c2ccc(C(=O)Nc3ccc(C(=O)O)cc3)c(O)c2OC(C)C)cc1 .
1210

----------
# assay text: PK study in mice after intravenous administration
# Type: in vivo, CD-1 mice
# cond: male, CD-1, mouse, plasma, iv, 1 mg/kg
experimental endpoint: clearance

Please report the recorded clearance for C#CC[C@H](NC(=O)c1ccc(NC(=O)c2ccc(C#N)cc2)cc1)C(=O)Nc1ccc(NC(=O)c2ccc(C(=O)Nc3ccc(C(=O)O)cc3)c(O)c2OC(C)C)cc1 .
17.9 mL/min/kg

----------
# assay text: PK study in mice after intravenous administration
# Assay type: in vivo, CD-1 mice
# cond: male, CD-1, mouse, plasma, iv, 1 mg/kg, volume of distribution, CD-1 mice, 1 mg/kg IV; read-out: Vz
experimental endpoint: Vd

Please report the recorded Vd for C#CC[C@H](NC(=O)c1ccc(NC(=O)c2ccc(C#N)cc2)cc1)C(=O)Nc1ccc(NC(=O)c2ccc(C(=O)Nc3ccc(C(=O)O)cc3)c(O)c2OC(C)C)cc1 .
~1.4 L/kg
